Header: log10(IC50) / Carbonic anhydrase 12 (Homo sapiens) / multiple publications
outcome measure: log10(IC50) (log10 of the value in nM)

compound structure string | outcome measure | value measured
Cc1ccc(S(=O)(=O)Nc2ccccc2-c2ccccc2)cc1 | log10(IC50) | 2.35
O=[N+]([O-])c1cccc(S(=O)(=O)NC(P(=O)(O)O)P(=O)(O)O)c1 | log10(IC50) | 2.90
O=P(O)(O)C(NS(=O)(=O)c1ccc(-c2ccccc2)cc1)P(=O)(O)O | log10(IC50) | 2.59
Cc1ccc(S(=O)(=O)NCc2ccccc2)cc1 | log10(IC50) | 3.63
O=C(NCCc1ccccc1)P(=O)(O)O | log10(IC50) | 3.74
O=P(O)(O)C(P(=O)(O)O)S(=O)(=O)c1ccc(Br)cc1 | log10(IC50) | 2.35
O=P(O)(O)C(Nc1ccc(C(F)(F)F)cc1)P(=O)(O)O | log10(IC50) | 1.95
O=P(O)(O)C(NS(=O)(=O)c1ccccc1)P(=O)(O)O | log10(IC50) | 2.93
O=P(O)(O)C(Nc1ccc(F)cc1)P(=O)(O)O | log10(IC50) | 2.43
